# Test Target: Cytohesin-3 (Homo sapiens) (UniProt O43739)
# Sequence (whole entry): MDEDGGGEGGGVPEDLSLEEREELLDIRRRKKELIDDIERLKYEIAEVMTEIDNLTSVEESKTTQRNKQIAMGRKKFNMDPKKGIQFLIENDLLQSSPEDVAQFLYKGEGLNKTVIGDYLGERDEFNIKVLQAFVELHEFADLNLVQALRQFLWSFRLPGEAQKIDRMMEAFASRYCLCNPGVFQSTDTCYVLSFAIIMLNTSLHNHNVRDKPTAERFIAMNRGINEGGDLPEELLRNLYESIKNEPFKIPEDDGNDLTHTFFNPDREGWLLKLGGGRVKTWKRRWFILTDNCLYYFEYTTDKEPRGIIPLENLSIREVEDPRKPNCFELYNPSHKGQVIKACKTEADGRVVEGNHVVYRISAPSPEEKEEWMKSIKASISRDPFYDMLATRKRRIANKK
# Procedure Summary: Inhibition of C-terminal 6xHis-tagged Grp1 PH domain (unknown origin) expressed in Escherichia coli BL21(DE3) RIL assessed as inhibition of interaction with PtdIns(3,4,5)P3 at 500 uM after 15 mins by SPR analysis relative to control
Record condition met whenever inhibition is at 40% or higher; record condition not met when lower.

Consider the worked cases shown below.
[[record]]
compound = "CCOP(=O)(O)c1cc(C(=O)O)[nH]n1"
answer_label = "condition not met"

[[record]]
compound = "O=C(O)c1cc(P(=O)(O)O)n[nH]1"
answer_label = "condition met"

[[record]]
compound = "CC1(C(=O)O)CC([PH](=O)O)=NN1 (stereo not given)"
answer_label = "condition met"

[[record]]
compound = "O=C1[C@@H]2C[C@@H]3CC[C@@]2(O3)[C@@H](P(=O)(O)O)N1Cc1ccccc1"
answer_label = "condition not met"


With those in mind, consider the next compound.
Decide: inhibition of COP(=O)(O)C1=NNC(C)(C(=O)O)C1 (stereo not given) >= 40%?
condition met
